Test: cell viability in Huh7 cells, primary screen, cytotoxicity control for HCV replication inhibitor project, CellTiter-Glo luminescence, basal, 48 h (AID 1143);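 note: Huh7 hepatoma cells carrying a hepatitis C replication reporter with no stimulus; test concentration not given here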
Conditions: Huh7 HCV replicon, higher = more signal, called active from +8 up or from −8 down
Measured property: z-score
Provide a numeric answer; units are not to be included.

Would you please look over these solved cases?
INSERT INTO assay_data (molecule, measured_property, numeric_value) VALUES
  ('C=C(CCCC)/C(=C/C[C@H](OC(C)=O)c1ccccc1OCCO)c1cc(C(=O)OC)ccc1OC', 'z-score', -3.83),
  ('COCCOC(=O)N1C(=O)[C@@]2(c3cc(C#CCC(C(=O)OC)C(=O)OC)ccc31)[C@H](c1ccccc1OCCO)N1[C@H](c3ccccc3)[C@H](c3ccccc3)OC(=O)[C@H]1[C@@H]2C(=O)NC[C@H](O)c1ccccc1', 'z-score', -4.23),
  ('COC(=O)C[C@H]1O[C@]2(C(=O)N(C)c3ccccc32)[C@@H](C)[C@@H]1[Si](C)(C)F', 'z-score', -1.18),
  ('COC(=O)[C@@]1(CCC(=O)OC(C)(C)C)N=C(c2ccc(OCCCO)cc2)O[C@H]1c1ccccc1N=[N+]=[N-]', 'z-score', -4.35),
  ('CC(C)C(O)C1C=CC2C(=O)NC(=O)C2N1Nc1ccc(Cl)cc1Cl (configuration not stated)', 'z-score', -0.158),
  ('COC(=O)c1c(CC[C@@H](CO)NC(=O)NCCn2cc(C3(O)CCCC3)nn2)oc(C(C)=O)c1C(=O)OC', 'z-score', -0.177);

Quote z-score reported for `C=CCNC(=O)[C@@H]1[C@H]2C(=O)O[C@H](c3ccccc3)[C@H](c3ccccc3)N2[C@H](c2ccc(O)cc2)[C@@]12C(=O)N(C(=O)OCCOC)c1ccc(C#CCNC(N)=O)cc12` please.
-2.23

Tell me z-score reported for `Cc1ccc(N2C(=O)c3ccccc3[C@@H](C(=O)NC3CC3)[C@@H]2c2ccc(CO)cc2)nc1`
0.256

Origin of the recorded values: PubChem BioAssay
